Origin of values: paper PMC6572064

- target.desc: PARP-2 (Homo sapiens, UniProt Q9UGN5)
- Construct: purchased BPS Bioscience 80552
- Sequence (Q9UGN5 whole entry): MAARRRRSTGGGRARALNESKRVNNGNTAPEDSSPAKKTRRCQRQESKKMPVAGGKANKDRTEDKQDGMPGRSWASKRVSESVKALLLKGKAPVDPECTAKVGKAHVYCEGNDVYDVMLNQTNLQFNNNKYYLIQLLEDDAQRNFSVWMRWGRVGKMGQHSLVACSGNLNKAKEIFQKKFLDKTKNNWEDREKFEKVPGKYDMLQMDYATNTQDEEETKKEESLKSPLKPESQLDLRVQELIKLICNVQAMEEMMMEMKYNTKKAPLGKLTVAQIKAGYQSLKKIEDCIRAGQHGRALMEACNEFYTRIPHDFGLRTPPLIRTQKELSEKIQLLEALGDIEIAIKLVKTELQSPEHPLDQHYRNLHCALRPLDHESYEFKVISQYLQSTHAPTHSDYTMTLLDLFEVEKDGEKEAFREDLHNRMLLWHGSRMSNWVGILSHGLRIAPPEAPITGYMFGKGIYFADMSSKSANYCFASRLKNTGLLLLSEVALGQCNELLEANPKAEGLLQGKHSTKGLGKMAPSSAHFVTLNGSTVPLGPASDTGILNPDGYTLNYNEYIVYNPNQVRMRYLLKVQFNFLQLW
- assay: PARP-2 inhibition assay (PARP-2 Chemiluminescent Assay Kit, BPS Bioscience)
- Format: biochemical
- study.conditions: 10 nM compound; read-out: PARP-2 Inhibition % (10 nM)
endpoint.name: inhibition at 0.01 µM (%)

{"compound": "NC(=O)c1cccc2[nH]c(C3CCN(CCCC(=O)c4ccccc4)C3)nc12 (stereo not drawn)", "target.desc": "PARP-2 (Homo sapiens, UniProt Q9UGN5)", "endpoint.name": "inhibition at 0.01 µM", "readout.number": 62.3}
{"compound": "NC(=O)c1cccc2[nH]c(C3CCN(CC(=O)c4ccccc4)C3)nc12 (stereo not drawn)", "target.desc": "PARP-2 (Homo sapiens, UniProt Q9UGN5)", "endpoint.name": "inhibition at 0.01 µM", "readout.number": 7.2}
{"compound": "NC(=O)c1cccc2[nH]c(C3CCN(CCC(=O)Nc4ccccc4)C3)nc12 (stereo not drawn)", "target.desc": "PARP-2 (Homo sapiens, UniProt Q9UGN5)", "endpoint.name": "inhibition at 0.01 µM", "readout.number": 41.2}
{"compound": "COc1ccc(C(=O)CCN2CCC(c3nc4c(C(N)=O)cccc4[nH]3)C2)cc1 (stereo not drawn)", "target.desc": "PARP-2 (Homo sapiens, UniProt Q9UGN5)", "endpoint.name": "inhibition at 0.01 µM", "readout.number": 62.5}
{"compound": "NCCCN1CCC(c2nc3c(C(N)=O)cccc3[nH]2)C1 (stereo not drawn)", "target.desc": "PARP-2 (Homo sapiens, UniProt Q9UGN5)", "endpoint.name": "inhibition at 0.01 µM", "readout.number": 46.4}
{"compound": "NC(=O)c1cccc2[nH]c(C3CCN(CCCN4C(=O)c5ccccc5C4=O)C3)nc12 (stereo not drawn)", "target.desc": "PARP-2 (Homo sapiens, UniProt Q9UGN5)", "endpoint.name": "inhibition at 0.01 µM", "readout.number": 74.5}
{"compound": "NC(=O)c1cccc2[nH]c(C3CCN(CCCNC(=O)c4ccccc4)C3)nc12 (stereo not drawn)", "target.desc": "PARP-2 (Homo sapiens, UniProt Q9UGN5)", "endpoint.name": "inhibition at 0.01 µM", "readout.number": 39.1}
{"compound": "NC(=O)c1cccc2[nH]c(C3CCN(CCC(=O)c4ccccc4)C3)nc12 (stereo not drawn)", "target.desc": "PARP-2 (Homo sapiens, UniProt Q9UGN5)", "endpoint.name": "inhibition at 0.01 µM", "readout.number": 76.7}
{"compound": "NC(=O)c1cccc2[nH]c(C3CCN(CCCNc4ccccc4)C3)nc12 (stereo not drawn)", "target.desc": "PARP-2 (Homo sapiens, UniProt Q9UGN5)", "endpoint.name": "inhibition at 0.01 µM", "readout.number": 66.2}
{"compound": "NC(=O)c1cccc2[nH]c(C3CCN(CCC(=O)c4ccc(Cl)cc4)C3)nc12 (stereo not drawn)", "target.desc": "PARP-2 (Homo sapiens, UniProt Q9UGN5)", "endpoint.name": "inhibition at 0.01 µM", "readout.number": 65.6}
{"compound": "NC(=O)c1cccc2[nH]c(C3CCN(CC(O)c4ccccc4)C3)nc12 (stereo not drawn)", "target.desc": "PARP-2 (Homo sapiens, UniProt Q9UGN5)", "endpoint.name": "inhibition at 0.01 µM", "readout.number": 9}
{"compound": "NC(=O)c1cccc2[nH]c(C3CCN(CCN4C(=O)c5ccccc5C4=O)C3)nc12 (stereo not drawn)", "target.desc": "PARP-2 (Homo sapiens, UniProt Q9UGN5)", "endpoint.name": "inhibition at 0.01 µM", "readout.number": 37.1}
{"compound": "NC(=O)c1cccc2[nH]c(C3CCN(CCNC(=O)c4ccccc4)C3)nc12 (stereo not drawn)", "target.desc": "PARP-2 (Homo sapiens, UniProt Q9UGN5)", "endpoint.name": "inhibition at 0.01 µM", "readout.number": 66.2}
{"compound": "NC(=O)c1cccc2[nH]c(C3CCN(CC(=O)Nc4ccccc4)C3)nc12 (stereo not drawn)", "target.desc": "PARP-2 (Homo sapiens, UniProt Q9UGN5)", "endpoint.name": "inhibition at 0.01 µM", "readout.number": 34.5}
{"compound": "NCCN1CCC(c2nc3c(C(N)=O)cccc3[nH]2)C1 (stereo not drawn)", "target.desc": "PARP-2 (Homo sapiens, UniProt Q9UGN5)", "endpoint.name": "inhibition at 0.01 µM", "readout.number": 32.8}

----------
- target.desc: PARP-2 (Homo sapiens, UniProt Q9UGN5)
- Construct: purchased BPS Bioscience 80552
- assay: PARP-2 inhibition assay (PARP-2 Chemiluminescent Assay Kit, BPS Bioscience)
- Type: biochemical
- study.conditions: supplement sheet; read-out: IC50 PAPR-2
// IC50 lookup, one value per entry

{"compound": "NC(=O)c1cccc2[nH]c(C3CCN(CCCNc4ccccc4)C3)nc12 (stereo not drawn)", "IC50 (nM)": 3.33}
{"compound": "NC(=O)c1cccc2[nH]c(C3CCN(CCC(=O)c4ccc(Cl)cc4)C3)nc12 (stereo not drawn)", "IC50 (nM)": 4.22}
{"compound": "NC(=O)c1cccc2[nH]c(C3CCN(CCC(=O)c4ccccc4)C3)nc12 (stereo not drawn)", "IC50 (nM)": 3.15}
{"compound": "NC(=O)c1cccc2[nH]c(C3CCN(CCNC(=O)c4ccccc4)C3)nc12 (stereo not drawn)", "IC50 (nM)": 5.67}
{"compound": "COc1ccc(C(=O)CCN2CCC(c3nc4c(C(N)=O)cccc4[nH]3)C2)cc1 (stereo not drawn)", "IC50 (nM)": 4.52}
{"compound": "NC(=O)c1cccc2[nH]c(C3CCN(CCCC(=O)c4ccccc4)C3)nc12 (stereo not drawn)", "IC50 (nM)": 5.76}

----------
- System: MDA-MB-436 (a BRCA-1-mutated breast cancer cell line)
- assay: Cell proliferation assay, three-day, CellTiter-Glo, MDA-MB-436
- Format: cell-based
- study.conditions: Homo sapiens, MDA-MB-436, MDA-MB-436, Conc. 11.11 uM, replicate 1; read-out: Inh % 1
// inhibition at 11.11 µM lookup, one value per entry

{"molecule": "NCCCN1CCC(c2nc3c(C(N)=O)cccc3[nH]2)C1 (centres unmarked)", "measurement.units": "%", "inhibition at 11.11 µM": -5.4}
{"molecule": "NC(=O)c1cccc2[nH]c(C3CCN(CCN4C(=O)c5ccccc5C4=O)C3)nc12 (centres unmarked)", "measurement.units": "%", "inhibition at 11.11 µM": -14.1}
{"molecule": "NC(=O)c1cccc2[nH]c(C3CCN(CCC(=O)c4ccc(Cl)cc4)C3)nc12 (centres unmarked)", "measurement.units": "%", "inhibition at 11.11 µM": 10.8}
{"molecule": "NC(=O)c1cccc2[nH]c(C3CCN(CC(O)c4ccccc4)C3)nc12 (centres unmarked)", "measurement.units": "%", "inhibition at 11.11 µM": -3.4}
{"molecule": "NC(=O)c1cccc2[nH]c(C3CCN(CC(=O)c4ccccc4)C3)nc12 (centres unmarked)", "measurement.units": "%", "inhibition at 11.11 µM": 0.3}
{"molecule": "NC(=O)c1cccc2[nH]c(C3CCN(CCNC(=O)c4ccccc4)C3)nc12 (centres unmarked)", "measurement.units": "%", "inhibition at 11.11 µM": 2.4}
{"molecule": "NC(=O)c1cccc2[nH]c(C3CCN(CCCC(=O)c4ccccc4)C3)nc12 (centres unmarked)", "measurement.units": "%", "inhibition at 11.11 µM": -6.6}
{"molecule": "NC(=O)c1cccc2[nH]c(C3CCN(CCC(=O)c4ccccc4)C3)nc12 (centres unmarked)", "measurement.units": "%", "inhibition at 11.11 µM": 7.8}

----------
- Test system: CAPAN-1 (a BRCA-2-mutated pancreatic cancer cell line)
- assay: Cell proliferation assay, three-day, CellTiter-Glo, CAPAN-1
- Format: cell-based
- study.conditions: Homo sapiens; CAPAN-1, 1.23 uM, replicate 1; read-out: Inh % 1
endpoint.name: inhibition at 1.23 µM (%)

{"compound": "NC(=O)c1cccc2[nH]c(C3CCN(CCCN4C(=O)c5ccccc5C4=O)C3)nc12 (stereo not drawn) [Compound 5ce]", "target.desc": "CAPAN-1 (a BRCA-2-mutated pancreatic cancer cell line)", "measurement.units": "%", "readout.number": 7.5}
{"compound": "NC(=O)c1cccc2[nH]c(C3CCN(CC(=O)Nc4ccccc4)C3)nc12 (stereo not drawn) [Compound 5ca]", "target.desc": "CAPAN-1 (a BRCA-2-mutated pancreatic cancer cell line)", "measurement.units": "%", "readout.number": 21.1}
{"compound": "NC(=O)c1cccc2[nH]c(C3CCN(CC(=O)c4ccccc4)C3)nc12 (stereo not drawn) [Compound 5cd]", "target.desc": "CAPAN-1 (a BRCA-2-mutated pancreatic cancer cell line)", "measurement.units": "%", "readout.number": 2.1}
{"compound": "NC(=O)c1cccc2[nH]c(C3CCN(CCC(=O)Nc4ccccc4)C3)nc12 (stereo not drawn) [Compound 5cb]", "target.desc": "CAPAN-1 (a BRCA-2-mutated pancreatic cancer cell line)", "measurement.units": "%", "readout.number": 12.4}
{"compound": "NC(=O)c1cccc2[nH]c(C3CCN(CCC(=O)c4ccc(Cl)cc4)C3)nc12 (stereo not drawn) [Compound 5cj]", "target.desc": "CAPAN-1 (a BRCA-2-mutated pancreatic cancer cell line)", "measurement.units": "%", "readout.number": -2.6}
{"compound": "NC(=O)c1cccc2[nH]c(C3CCN(CCN4C(=O)c5ccccc5C4=O)C3)nc12 (stereo not drawn) [Compound 5ck]", "target.desc": "CAPAN-1 (a BRCA-2-mutated pancreatic cancer cell line)", "measurement.units": "%", "readout.number": 3.9}
